experiment: aPM in mouse urine after i.p. injection of (+)-α-pinene or (−)-α-pinene; type: in vivo, mice (C57BL/6); conditions: mouse urine; enantiomer specificity
READOUT: R/(R+S) (%)

INSERT INTO assay_data (molecule, reported_measurement) VALUES
  ('CC1(C)C2CC1C(OC1OC(C(=O)O)C(O)C(O)C1O)C=C2C(=O)O (single isomer, unassigned) [aPM5a, Myrtenic acid-4-O-GlcA]', 0),
  ('CC1(C)C2CCC(C(=O)OC3OC(C(=O)O)C(O)C(O)C3O)C1C2 (single isomer, unassigned) [aPM4d, Dihydromyrtenic acid-GlcA]', 0.0),
  ('CC1(C)C2CC1C(OC1OC(C(=O)O)C(O)C(O)C1O)C=C2C(=O)O (single isomer, unassigned) [aPM5d, Myrtenic acid-4-O-GlcA]', 100),
  ('CC1(C)C2CC=C(C(=O)OC3OC(C(=O)O)C(O)C(O)C3O)C1C2 (single isomer, unassigned) [aPM3b, Myrtenic acid-GlcA]', 37.5);

###

assay: Relative quantification of urinary aPM (UPLC-QTOF-MS, creatinine-normalized) after controlled α-pinene inhalation; assay type: in vivo, human; conditions: human urine after α-pinene inhalation
compounds and their reported Frequency of occurrence (percentage of samples with analyte detected)
READOUT: Frequency of occurrence (percentage of samples with analyte detected) (%)

INSERT INTO assay_data (compound, unit_label, reported_measurement) VALUES
  ('CC1(C)C2CC=C(COC3OC(C(=O)O)C(O)C(O)C3O)C1C2 (stereo not shown) [aPM2c, myrtenol glucuronide]', '%', 95.8),
  ('CC1=CC(OC2OC(C(=O)O)C(O)C(O)C2O)C2CC1C2(C)C (stereo not shown) [aPM2b, verbenol glucuronide]', '%', 100.0),
  ('CC1(C)C2CC1C(OC1OC(C(=O)O)C(O)C(O)C1O)C=C2C(=O)O (single isomer, unassigned) [aPM5e, Myrtenic acid-4-O-GlcA]', '%', 72.9),
  ('CC1(C)C2CC1C(C(=O)O)=CC2=O (stereo not shown) [aPM1, Myrtenic acid-4-one]', '%', 95.8),
  ('CC1(C)C2CCC(C(=O)OC3OC(C(=O)O)C(O)C(O)C3O)C1C2 (single isomer, unassigned) [aPM4c, Dihydromyrtenic acid-GlcA]', '%', 89.6),
  ('CC1(C)C2CCC(C(=O)OC3OC(C(=O)O)C(O)C(O)C3O)C1C2 (single isomer, unassigned) [aPM4a, Dihydromyrtenic acid-GlcA]', '%', 89.6),
  ('CC1(C)C2CC1C(OC1OC(C(=O)O)C(O)C(O)C1O)C=C2C(=O)O (single isomer, unassigned) [aPM5b, Myrtenic acid-4-O-GlcA]', '%', 91.7),
  ('CC1(C)C2CC=C(C(=O)OC3OC(C(=O)O)C(O)C(O)C3O)C1C2 (single isomer, unassigned) [aPM3a, Myrtenic acid-GlcA]', '%', 93.8),
  ('CC1(C)C2CC1C(OC1OC(C(=O)O)C(O)C(O)C1O)C=C2C(=O)O (single isomer, unassigned) [aPM5a, Myrtenic acid-4-O-GlcA]', '%', 79.2),
  ('CC1(C)C2CC=C(C(=O)OC3OC(C(=O)O)C(O)C(O)C3O)C1C2 (single isomer, unassigned) [aPM3b, Myrtenic acid-GlcA]', '%', 100.0),
  ('CC1(C)C2CCC(C(=O)OC3OC(C(=O)O)C(O)C(O)C3O)C1C2 (single isomer, unassigned) [aPM4e, Dihydromyrtenic acid-GlcA]', '%', 95.8),
  ('CC1(C)C2CCC(C(=O)OC3OC(C(=O)O)C(O)C(O)C3O)C1C2 (single isomer, unassigned) [aPM4d, Dihydromyrtenic acid-GlcA]', '%', 97.9),
  ('CC1(C)C2CC1C(OC1OC(C(=O)O)C(O)C(O)C1O)C=C2C(=O)O (single isomer, unassigned) [aPM5f, Myrtenic acid-4-O-GlcA]', '%', 87.5);

###

assay: Kinetic modeling of urinary aPM with a pseudo one-compartment nonlinear mixed-effects model after α-pinene inhalation; assay type: in vivo, human; details: human urine after α-pinene inhalation; pseudo one-compartment model
READOUT: Ka, first-order generation constant (h⁻¹)

INSERT INTO assay_data (compound, reported_measurement) VALUES
  ('CC1(C)C2CC=C(COC3OC(C(=O)O)C(O)C(O)C3O)C1C2 (stereo not drawn) [aPM2c, myrtenol glucuronide]', 3.02),
  ('CC1(C)C2CCC(C(=O)OC3OC(C(=O)O)C(O)C(O)C3O)C1C2 (single isomer, unassigned) [aPM4d, Dihydromyrtenic acid-GlcA]', 0.73),
  ('CC1(C)C2CC1C(OC1OC(C(=O)O)C(O)C(O)C1O)C=C2C(=O)O (single isomer, unassigned) [aPM5b, Myrtenic acid-4-O-GlcA]', 1.74),
  ('CC1(C)C2CC1C(OC1OC(C(=O)O)C(O)C(O)C1O)C=C2C(=O)O (single isomer, unassigned) [aPM5d, Myrtenic acid-4-O-GlcA]', 1.33),
  ('CC1(C)C2CC1C(OC1OC(C(=O)O)C(O)C(O)C1O)C=C2C(=O)O (single isomer, unassigned) [aPM5c, Myrtenic acid-4-O-GlcA]', 1.73),
  ('CC1(C)C2CC1C(OC1OC(C(=O)O)C(O)C(O)C1O)C=C2C(=O)O (single isomer, unassigned) [aPM5g, Myrtenic acid-4-O-GlcA]', 1.62);

###

experiment: Relative quantification of urinary aPM (UPLC-QTOF-MS, creatinine-normalized) after controlled α-pinene inhalation; type: in vivo, human; conditions: human urine after α-pinene inhalation
compounds and their reported Frequency of occurrence (percentage of samples with analyte detected)
READOUT: Frequency of occurrence (percentage of samples with analyte detected)

INSERT INTO assay_data (compound, reported_measurement) VALUES
  ('CC1(C)C2CC1C(OC1OC(C(=O)O)C(O)C(O)C1O)C=C2C(=O)O (single isomer, unassigned) [aPM5d, Myrtenic acid-4-O-GlcA]', '81.3%'),
  ('CC1(C)C2CC1C(OC1OC(C(=O)O)C(O)C(O)C1O)C=C2C(=O)O (single isomer, unassigned) [aPM5c, Myrtenic acid-4-O-GlcA]', '79.2%'),
  ('CC1(C)C2CC1C(OC1OC(C(=O)O)C(O)C(O)C1O)C=C2C(=O)O (single isomer, unassigned) [aPM5g, Myrtenic acid-4-O-GlcA]', '100.0%'),
  ('CC1(C)C2CCC(C(=O)OC3OC(C(=O)O)C(O)C(O)C3O)C1C2 (single isomer, unassigned) [aPM4b, Dihydromyrtenic acid-GlcA]', '81.3%');

###

compounds and their reported Maximum response (highest peak response across all urine samples)
assay: Relative quantification of urinary aPM (UPLC-QTOF-MS, creatinine-normalized) after controlled α-pinene inhalation; assay type: in vivo, human; settings: human urine after α-pinene inhalation
READOUT: Maximum response (highest peak response across all urine samples)

INSERT INTO measurements (compound, reported_measurement) VALUES
  ('CC1(C)C2CC1C(C(=O)O)=CC2=O (stereo not drawn)', 17385),
  ('CC1(C)C2CC1C(OC1OC(C(=O)O)C(O)C(O)C1O)C=C2C(=O)O (single isomer, unassigned) [aPM5f, Myrtenic acid-4-O-GlcA]', 5543),
  ('CC1(C)C2CCC(C(=O)OC3OC(C(=O)O)C(O)C(O)C3O)C1C2 (single isomer, unassigned) [aPM4b, Dihydromyrtenic acid-GlcA]', 14109),
  ('CC1(C)C2CCC(C(=O)OC3OC(C(=O)O)C(O)C(O)C3O)C1C2 (single isomer, unassigned) [aPM4a, Dihydromyrtenic acid-GlcA]', 72991),
  ('CC1(C)C2CCC(C(=O)OC3OC(C(=O)O)C(O)C(O)C3O)C1C2 (single isomer, unassigned) [aPM4e, Dihydromyrtenic acid-GlcA]', 241782),
  ('CC1(C)C2CC1C(OC1OC(C(=O)O)C(O)C(O)C1O)C=C2C(=O)O (single isomer, unassigned) [aPM5c, Myrtenic acid-4-O-GlcA]', 25963);

###

test: Urinary aPM after 4 h greenness (forest) exposure; format: in vivo, human; parameters: unit not given here; conditions: human urine, greenness exposure
compounds and their reported Maximum response
READOUT: Maximum response

INSERT INTO assay_data (compound, reported_measurement) VALUES
  ('CC1(C)C2CC1C(OC1OC(C(=O)O)C(O)C(O)C1O)C=C2C(=O)O (single isomer, unassigned) [aPM5e, Myrtenic acid-4-O-GlcA]', 93),
  ('CC1(C)C2CCC(C(=O)OC3OC(C(=O)O)C(O)C(O)C3O)C1C2 (single isomer, unassigned) [aPM4d, Dihydromyrtenic acid-GlcA]', 7375),
  ('CC1(C)C2CCC(C(=O)OC3OC(C(=O)O)C(O)C(O)C3O)C1C2 (single isomer, unassigned) [aPM4a, Dihydromyrtenic acid-GlcA]', 53),
  ('CC1=CC(OC2OC(C(=O)O)C(O)C(O)C2O)C2CC1C2(C)C (centres unmarked) [aPM2b, verbenol glucuronide]', 171),
  ('CC1(C)C2CCC(C(=O)OC3OC(C(=O)O)C(O)C(O)C3O)C1C2 (single isomer, unassigned) [aPM4e, Dihydromyrtenic acid-GlcA]', 27114);
